test: gradient 5% acetonitrile 3 min, to 50% in 2 min, to 85% in 15 min, held 3 min, 100 µL/min; details: column: Zorbax Extend-C18 2.1 x 50 mm; eluents: water / acetonitrile, 0.1% formic acid
readoutKind: RP-LC retention time (s)
Form entry: value (s) — number only.

I'd like to know its RP-LC retention time. The molecule in question is Fc1cccc(-c2noc(-c3ccc(N4CCN(c5ncccn5)CC4)nc3)n2)c1 1230

I'd like to know its RP-LC retention time. The molecule in question is O=C(c1ccco1)N1CCC(c2nc(C3CC3)n[nH]2)CC1 521

I'd like to know its RP-LC retention time. The molecule in question is Cc1ccc(C(=O)N2CCN(c3nnc4ccc(Cl)cn34)CC2)cc1F 760

I'd like to know its RP-LC retention time. The molecule in question is CNC(=O)c1cc(N(C)C)nc2c(C)cccc12 557

I'd like to know its RP-LC retention time. The molecule in question is Cc1ccc(-n2c(-c3ccc(Cl)cc3)cn3c4c(=O)n(C)c(=O)n(C)c4nc23)cc1N 870
